Just for reference, ChEMBL document CHEMBL3988442 is where these values come from.

- System: Wolbachia pipientis
- ASSAY INFO: Anti-Wolbachia Cell-Based Screen
- Assay type: functional
- Parameters: scale not given: in the data most compounds retested in dose-response had high values
- MEASUREMENT CONTEXT: 5 µM
Out of some 48,000 compounds screened, about 13,000 (27%) showed an effect of 50% or more. Some of the results follow.
Returns condition met if the recorded Percent Effect is greater than or equal to 20%, and condition not met otherwise.

SMILES TEXT | ASSIGNED CATEGORY
Cc1c(C)n(Cc2ccncc2)c2nc3c(c(N)c12)CCCCC3 | condition met
Cc1c(C)n(-c2ccccn2)c2nc3c(c(N)c12)CCCC3 | condition not met
C[C@@H]1CN(c2nc(N)nc3c2CCC3)CC[C@@]1(O)C1CCC1 | condition not met
CN(CCCc1cc(-c2ccccc2)n[nH]1)C(=O)CCCn1cncn1 | condition not met
CCc1cc(-c2nccn2-c2ccccc2CN2CCOCC2)on1 | condition not met
CN1CCc2c1nc1c(c2N)CCC1 | condition met

---

Percent Effect listing for selected compounds.
- System: Wolbachia pipientis
- ASSAY INFO: Anti-Wolbachia Cell-Based Screen
- Type: functional
- Design: scale not given: in the data most compounds retested in dose-response had high values
- MEASUREMENT CONTEXT: 5 µM
The whole screen tested about 48,000 compounds, of which about 13,000 (27%) showed an effect of 50% or more. The list shows a part of the results.

COMPOUND | TARGET OF ASSAY | Percent Effect
CC(C)(C)c1cc(=O)n2c(n1)SCC(C(=O)NCc1ccccn1)C2 (stereo not drawn) | Wolbachia pipientis | 106.1%
Cc1ccc(-c2nnc(CN3CCOC(Cn4cccn4)C3)o2)cc1 (stereo not drawn) | Wolbachia pipientis | -8.169%
COCc1nnc(C(=O)N2CCCC(O)C2)o1 (stereo not drawn) | Wolbachia pipientis | 102.5%
O=c1cc(N2CCNCC2)cnn1Cc1noc(C2CCCC2)n1 | Wolbachia pipientis | 5.676%
NC(=O)C1(CCCc2ccccn2)CCCN(Cc2ncc[nH]2)C1 (stereo not drawn) | Wolbachia pipientis | 141.6%
CCNc1ncc(CN2C[C@H](C3CC3)[C@@H](N)C2)cn1 | Wolbachia pipientis | -8.073%
CC(C)(C)c1cc(=O)n2c(n1)SCC(C(=O)NCc1cccs1)C2 (stereo not drawn) | Wolbachia pipientis | 98.61%
Cc1cnn(CC2CN(Cc3nnc(-c4occc4C)o3)CCO2)c1 (stereo not drawn) | Wolbachia pipientis | -2.933%
Cc1noc(CNc2ccccc2C(=O)N2CCCC(O)C2)n1 (stereo not drawn) | Wolbachia pipientis | -16.45%
Cc1nccn1-c1ccc(=O)n(CCNC(=O)c2cccs2)n1 | Wolbachia pipientis | 125.6%
Clc1ccc(N2CCC(C3CCN(Cc4cccnc4)CC3)C2)nc1 (stereo not drawn) | Wolbachia pipientis | 4.175%
Cc1noc(CNc2cccc(C(=O)N3CCCC(O)C3)c2)n1 (stereo not drawn) | Wolbachia pipientis | 7.269%
O=C(CN1CCCCC1Cn1cccn1)NC1CCOCC1 (stereo not drawn) | Wolbachia pipientis | -17.79%
Cc1cnn(CC2CN(Cc3nc(C)c(C)o3)CCO2)c1 (stereo not drawn) | Wolbachia pipientis | 94.42%
Cc1[nH]ccc1C(=O)N(Cc1ccc(O)cc1)CC1CC1 | Wolbachia pipientis | 16.53%
CCOC(=O)C1(Cc2cccc(OC)c2)CCCN(Cc2ncc[nH]2)C1 (stereo not drawn) | Wolbachia pipientis | 25.22%
Cc1cc(NC(=O)CCN2CCCCC2Cn2cccn2)no1 (stereo not drawn) | Wolbachia pipientis | 107.3%
Cc1cccc(CNC(Cn2cncn2)c2ccccc2)c1C (stereo not drawn) | Wolbachia pipientis | -43.08%
CC(C)c1ncncc1C(=O)NCCN1CCCS1(=O)=O | Wolbachia pipientis | -1.199%
O=C(OCc1ccccc1)c1cccc(NC(=O)C2COCCO2)c1 (stereo not drawn) | Wolbachia pipientis | -10.37%
COCc1nnc(C(=O)N2CC(N3CCCCC3)C2)o1 | Wolbachia pipientis | 110.5%
CCN1CCC(NC(=O)CN2CCCCC2Cn2cccn2)CC1 (stereo not drawn) | Wolbachia pipientis | 8.022%
Cc1cc(NC(=O)CCN2CCCC2Cn2cccn2)no1 (stereo not drawn) | Wolbachia pipientis | 85.34%
COCc1nnc(C(=O)N2CCC(N3CCCCC3)CC2)o1 | Wolbachia pipientis | 90.19%
CC(C)N(Cc1cnn(C)c1)CC1CCCN(S(C)(=O)=O)C1 (stereo not drawn) | Wolbachia pipientis | 7.104%
CCC(C)(C)NC(=O)COC(=O)c1cc(C)ccc1NC(=O)N(C)C | Wolbachia pipientis | -1.36%
O=C(NCc1cn2cccnc2n1)C1CC(=O)N(Cc2ccccn2)C1 (stereo not drawn) | Wolbachia pipientis | -14.07%
NC(=O)C1(CCCc2ccccn2)CCCN(Cc2ccncc2)C1 (stereo not drawn) | Wolbachia pipientis | 119.7%
CC(C)(C)c1cc(NC(=O)CN2CCCC2Cn2cccn2)on1 (stereo not drawn) | Wolbachia pipientis | 83.96%
CN(Cc1nccn1C)CC1CCOc2ccccc2C1 (stereo not drawn) | Wolbachia pipientis | 12.56%
O=C(O)C1(Cc2ccc(F)cc2)CCCN(Cc2ccncc2)C1 (stereo not drawn) | Wolbachia pipientis | -12.28%
F[C@@H]1CN(CC2CCCCC2)C[C@@H]1OCc1nc2ccccc2o1 | Wolbachia pipientis | -16.46%
CCN1CCC(NC(=O)CN2CCCC2Cn2cccn2)CC1 (stereo not drawn) | Wolbachia pipientis | 18.69%
Cc1cnn(C2CCCN(C(=O)c3c(C)oc4nc[nH]c(=O)c34)C2)c1 (stereo not drawn) | Wolbachia pipientis | -0.5439%
Cc1nccn1-c1ccc(=O)n(CCNC(=O)c2ccncc2)n1 | Wolbachia pipientis | 97.47%
C=C(C)CN(CC)Cc1nc(C2CC2)no1 | Wolbachia pipientis | 1.764%
CC(C)(C)c1cc(NC(=O)CN2CCCC2Cn2cncn2)on1 (stereo not drawn) | Wolbachia pipientis | 8.198%
CC(C)(C)c1cc(NC(=O)CN2CCCCC2Cn2cncn2)on1 (stereo not drawn) | Wolbachia pipientis | -6.385%
CCc1nnc(CN2CCOC(Cn3cc(C)cn3)C2)o1 (stereo not drawn) | Wolbachia pipientis | 101%
Cc1cc(NC(=O)CCN2CCCC2Cn2cncn2)no1 (stereo not drawn) | Wolbachia pipientis | 7.653%
CC(=O)N1CCCC(Cc2cncc(Br)c2)C1 (stereo not drawn) | Wolbachia pipientis | 130.8%
CCCc1nnc(N2CCC(N3CCCCCC3)CC2)o1 | Wolbachia pipientis | 12.1%
Cc1cc(CN(C)C(=O)NCc2ccnc(OC3CCCC3)c2)no1 | Wolbachia pipientis | 7.98%
CC(C)(C)c1cc(=O)n2c(n1)SCC(C(=O)NCc1ccco1)C2 (stereo not drawn) | Wolbachia pipientis | 102.3%
CC(C)c1ccc(-n2cc(O)c(C(=O)O)n2)cc1 | Wolbachia pipientis | 3.312%
Cl.O=C(NC[C@@]1(COc2cnccn2)C[C@@H](O)[C@@H](O)C1)C1CCOCC1 | Wolbachia pipientis | -6.345%
CCc1ccc(C(C)NC(=O)c2ccc(CS(C)(=O)=O)o2)cc1 (stereo not drawn) | Wolbachia pipientis | -17.56%
Cc1cc(S(=O)(=O)N2CCCN3CCCC3C2)ccc1F (stereo not drawn) | Wolbachia pipientis | -4.296%
